- measured-on: Proto-oncogene tyrosine-protein kinase Src (Homo sapiens)
- Sequence (P12931 2-536 limits assumed): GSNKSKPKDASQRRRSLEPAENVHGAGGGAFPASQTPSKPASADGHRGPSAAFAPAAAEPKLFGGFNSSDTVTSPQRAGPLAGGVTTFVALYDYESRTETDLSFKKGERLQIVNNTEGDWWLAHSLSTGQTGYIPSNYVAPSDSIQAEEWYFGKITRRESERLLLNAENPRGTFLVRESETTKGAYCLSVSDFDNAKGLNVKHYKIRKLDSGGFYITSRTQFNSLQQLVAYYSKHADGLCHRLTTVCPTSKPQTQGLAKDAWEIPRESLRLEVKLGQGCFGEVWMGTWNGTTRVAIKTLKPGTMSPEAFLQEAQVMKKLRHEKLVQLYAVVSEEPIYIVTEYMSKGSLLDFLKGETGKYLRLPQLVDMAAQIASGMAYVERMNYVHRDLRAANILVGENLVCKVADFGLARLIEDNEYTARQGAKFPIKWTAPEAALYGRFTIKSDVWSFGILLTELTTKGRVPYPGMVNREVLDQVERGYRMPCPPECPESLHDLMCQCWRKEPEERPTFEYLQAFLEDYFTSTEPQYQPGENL
pIC50: −log10 of the molar value.
quantity-measured: pIC50

[[record]]
compound = "CC(=O)NC(Cc1ccc(OCC(=O)O)cc1)C(=O)N[C@@H](C)c1ccc(OCC2CCCCC2)c(C(N)=O)c1 (stereo not given in full)"
number = 3.43


P: CC(C)(NC(=O)CCc1ccc(OCC(=O)O)c(P(=O)(O)O)c1)c1ccc(OCC2CCCCC2)c(C(N)=O)c1
Q: CC(=O)NC(Cc1ccc(OCC(=O)O)c(P(=O)(O)O)c1)C(=O)NCc1ccc(OCC2CCCCC2)c(C(N)=O)c1 (stereo not given)
// query Returns: the argument ( P or Q ) having the larger pIC50. Give the label of your selection.
// result P
